TARGET DESC: RBL-1 Cell 5-Lipoxygenase (Rattus norvegicus, UniProt P12527)
Construct: the supernatant was saved as the source of enzymes; endogenous in cells; host or cells: RBL-1 (rat basophilic leukemia cells), 10,000×g supernatant of homogenate
Sequence (P12527 1-673): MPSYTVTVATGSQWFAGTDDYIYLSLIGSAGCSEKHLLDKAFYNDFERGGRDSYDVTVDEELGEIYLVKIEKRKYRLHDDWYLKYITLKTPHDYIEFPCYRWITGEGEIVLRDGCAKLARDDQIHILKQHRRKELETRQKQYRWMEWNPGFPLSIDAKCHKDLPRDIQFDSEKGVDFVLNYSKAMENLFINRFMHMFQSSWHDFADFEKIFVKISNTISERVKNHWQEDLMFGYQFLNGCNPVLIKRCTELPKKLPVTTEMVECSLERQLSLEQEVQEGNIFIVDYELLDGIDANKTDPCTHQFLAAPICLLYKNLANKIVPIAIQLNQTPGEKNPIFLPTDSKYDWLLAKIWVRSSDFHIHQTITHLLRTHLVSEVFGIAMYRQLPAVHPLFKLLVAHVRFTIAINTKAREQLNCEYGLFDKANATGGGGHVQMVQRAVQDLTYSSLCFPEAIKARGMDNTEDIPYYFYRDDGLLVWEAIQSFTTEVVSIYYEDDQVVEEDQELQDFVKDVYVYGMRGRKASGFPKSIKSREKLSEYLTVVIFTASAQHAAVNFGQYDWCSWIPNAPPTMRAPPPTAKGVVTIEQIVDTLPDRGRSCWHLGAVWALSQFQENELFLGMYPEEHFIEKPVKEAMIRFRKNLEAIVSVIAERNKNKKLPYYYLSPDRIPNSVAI
EXPERIMENT SUMMARY: Procedure II: 5-lipoxygenase inhibition in disrupted RBL-1 cells (supernatant as enzyme source)
Format: biochemical
MEASUREMENT NAME: % INHIBITION 5-LO (Procedure II) (%)

[
  {
    "MOL": "COc1ccc(-n2nc(CCOC(=O)N(O)C(C)C)cc2-c2ccc(Cl)cc2)cc1",
    "VALUE REPORTED": 84
  },
  {
    "MOL": "COc1ccc(-n2nc(CCCOC(=O)N(C)O)c(Cl)c2-c2ccc(Cl)cc2)cc1",
    "VALUE REPORTED": 85
  },
  {
    "MOL": "COc1ccc(-n2nc(COC(=O)N(C)O)c(Br)c2-c2ccc(Cl)cc2)cc1",
    "VALUE REPORTED": 85
  }
]

a. COc1ccc(-n2nc(COC(=O)NO)c(Br)c2-c2ccc(Cl)cc2)cc1
b. COc1ccc(-n2nc(CCCOC(=O)N(C)O)c(Br)c2-c2ccc(Cl)cc2)cc1
### Prompt Hi, I'm comparing two records. Which one has the lower % INHIBITION 5-LO (Procedure II), a or b ? # answer = label of selected item
### Response a
(a: 28%, b: 88%)
